tested on: MCF7; experiment: percentage of EdU-negative (G0-arrested) nuclei per well, 72 h; higher = more G0 arrest; conditions: protein concentration 0.0225 µM; reference: sequence is the full UniProt precursor, the tested protein was the secreted form or ectodomain;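 note: secreted proteins added to cultured cells, EdU pulse at the end, nuclei found by Hoechst imaging, EdU status from nuclear versus surrounding ring intensity ratio, PBS as neutral control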

| ITEM SEQUENCE | percentage of EdU-negative, % |
| --- | --- |
| MVLCWLLLLVMALPPGTTGVKDCVFCELTDSMQCPGTYMHCGDDEDCFTGHGVAPGTGPVINKGCLRATSCGLEEPVSYRGVTYSLTTNCCTGRLCNRAPSSQTVGATTSLALGLGMLLPPRLL [Q8TDM5] | 27.6 |
| MWVPVVFLTLSVTWIGAAPLILSRIVGGWECEKHSQPWQVLVASRGRAVCGGVLVHPQWVLTAAHCIRNKSVILLGRHSLFHPEDTGQVFQVSHSFPHPLYDMSLLKNRFLRPGDDSSHDLMLLRLSEPAELTDAVKVMDLPTQEPALGTTCYASGWGSIEPEEFLTPKKLQCVDLHVISNDVCAQVHPQKVTKFMLCAGRWTGGKSTCSGDSGGPLVCNGVLQGITSWGSEPCALPERPSLYTKVVHYRKWIKDTIVANP | 26.3 |

---

percentage of EdU-negative values, listed per item
test system: MCF7; test: percentage of EdU-negative (G0-arrested) nuclei per well, 72 h; higher = more G0 arrest; conditions: protein concentration 0.0357143 µM; reference: sequence is the full UniProt precursor, the tested protein was the secreted form or ectodomain
RECORDED ENDPOINT: percentage of EdU-negative

| ITEM SEQUENCE | RECORDED ENDPOINT | VALUE |
| --- | --- | --- |
| MMRTCVLLSAVLWCLTGVQCPRFTLFNKKGFIYGKTGQPDKIYVELHQNSPVLICMDFKLSKKEIVDPTYLWIGPNEKTLTGNNRINITETGQLMVKDFLEPLSGLYTCTLSYKTVKAETQEEKTVKKRYDFMVFAYREPDYSYQMAVRFTTRSCIGRYNDVFFRVLKKILDSLISDLSCHVIEPSYKCHSVEIPEHGLIHELFIAFQVNPFAPGWKGACNGSVDCEDTTNHNILQARDRIEDFFRSQAYIFYHNFNKTLPAMHFVDHSLQVVRLDSCRPGFGKNERLHSNCASCCVVCSPATFSPDVNVTCQTCVSVLTYGAKSCPQTSNKNQQYED [Q6X784] | percentage of EdU-negative | 24.6% |
| MARILLLFLPGLVAVCAVHGIFMDRLASKKLCADDECVYTISLASAQEDYNAPDCRFINVKKGQQIYVYSKLVKENGAGEFWAGSVYGDGQDEMGVVGYFPRNLVKEQRVYQEATKEVPTTDIDFFCE [Q9NRC9] | percentage of EdU-negative | 24.2% |
| MWLLVSVILISRISSVGGEAMFCDFPKINHGILYDEEKYKPFSQVPTGEVFYYSCEYNFVSPSKSFWTRITCAEEGWSPTPKCLRLCFFPFVENGHSESSGQTHLEGDTVQIICNTGYRLQNNENNISCVERGWSTPPKCRSTISAEKCGPPPPIDNGDITSFLLSVYAPGSSVEYQCQNLYQLEGNNQITCRNGQWSEPPKCLDPCVISQEIMEKYNIKLKWTNQQKLYSRTGDIVEFVCKSGYHPTKSHSFRAMCQNGKLVYPSCEEK | percentage of EdU-negative | 26.5% |

---

tested on: MCF7; assay: percentage of EdU-negative (G0-arrested) nuclei per well, 72 h; higher = more G0 arrest; conditions: protein concentration 0.03125 µM; reference: sequence is the full UniProt precursor, the tested protein was the secreted form or ectodomain
RECORDED ENDPOINT: percentage of EdU-negative (%)

| ITEM SEQUENCE | UNIT SPEC | VALUE |
| --- | --- | --- |
| MKSGLWYFFLFCLRIKVLTGEINGSANYEMFIFHNGGVQILCKYPDIVQQFKMQLLKGGQILCDLTKTKGSGNTVSIKSLKFCHSQLSNNSVSFFLYNLDHSHANYYFCNLSIFDPPPFKVTLTGGYLHIYESQLCCQLKFWLPIGCAAFVVVCILGCILICWLTKKKYSSSVHDPNGEYMFMRAVNTAKKSRLTDVTL [Q9Y6W8] | % | 25.2 |
| MLFSALLLEVIWILAADGGQHWTYEGPHGQDHWPASYPECGNNAQSPIDIQTDSVTFDPDLPALQPHGYDQPGTEPLDLHNNGHTVQLSLPSTLYLGGLPRKYVAAQLHLHWGQKGSPGGSEHQINSEATFAELHIVHYDSDSYDSLSEAAERPQGLAVLGILIEVGETKNIAYEHILSHLHEVRHKDQKTSVPPFNLRELLPKQLGQYFRYNGSLTTPPCYQSVLWTVFYRRSQISMEQLEKLQGTLFSTEEEPSKLLVQNYRALQPLNQRMVFASFIQAGSSYTTGEMLSLGVGILVGCLCLLLAVYFIARKIRKKRLENRKSVVFTSAQATTEA [Q9ULX7] | % | 24.3 |
| MGPLSAPPCTQHITWKGLLLTASLLNFWNLPITAQVTIEALPPKVSEGKDVLLLVHNLPQNLAGYIWYKGQLMDLYHYITSYVVDGQINIYGPAYTGRETVYSNASLLIQNVTREDAGSYTLHIIKRGDRTRGVTGYFTFNLYLKLPKPYITINNSKPRENKDVLAFTCEPKSENYTYIWWLNGQSLPVSPRVKRPIENRILILPSVTRNETGPYECEIRDRDGGMRSDPVTLNVLYGPDLPSIYPSFTYYRSGENLYLSCFAESNPPAEYFWTINGKFQQSGQKLSIPQITTKHRGLYTCSVRNSATGKESSKSMTVEVSAPSGIGRLPLLNPI | % | 24.6 |

---

Items are presented alongside their recorded percentage of EdU-negative.
test system: hTERT-HMEC; assay: percentage of EdU-negative (G0-arrested) nuclei per well, 72 h; higher = more G0 arrest; conditions: protein concentration 0.0225 µM; reference: sequence is the full UniProt precursor, the tested protein was the secreted form or ectodomain

| ITEM SEQUENCE | percentage of EdU-negative [%] |
| --- | --- |
| MGRPRPRAAKTWMFLLLLGGAWAGHSRAQEDKVLGGHECQPHSQPWQAALFQGQQLLCGGVLVGGNWVLTAAHCKKPKYTVRLGDHSLQNKDGPEQEIPVVQSIPHPCYNSSDVEDHNHDLMLLQLRDQASLGSKVKPISLADHCTQPGQKCTVSGWGTVTSPRENFPDTLNCAEVKIFPQKKCEDAYPGQITDGMVCAGSSKGADTCQGDSGGPLVCDGALQGITSWGSDPCGRSDKPGVYTNICRYLDWIKKIIGSKG | 4.99 |
| MKLLFPIFASLMLQYQVNTEFIGLRRCLMGLGRCRDHCNVDEKEIQKCKMKKCCVGPKVVKLIKNYLQYGTPNVLNEDVQEMLKPAKNSSAVIQRKHILSVLPQIKSTSFFANTNFVIIPNATPMNSATISTMTPGQITYTATSTKSNTKESRDSATASPPPAPPPPNILPTPSLELEEAEEQ [Q9H1M3] | 4.86 |

---

system: MCF7; assay: percentage of EdU-negative (G0-arrested) nuclei per well, 72 h; higher = more G0 arrest; settings: protein concentration 0.0357143 µM; reference: sequence is the full UniProt precursor, the tested protein was the secreted form or ectodomain

| ITEM SEQUENCE | percentage of EdU-negative (%) |
| --- | --- |
| MLGIWTLLPLVLTSVARLSSKSVNAQVTDINSKGLELRKTVTTVETQNLEGLHHDGQFCHKPCPPGERKARDCTVNGDEPDCVPCQEGKEYTDKAHFSSKCRRCRLCDEGHGLEVEINCTRTQNTKCRCKPNFFCNSTVCEHCDPCTKCEHGIIKECTLTSNTKCKEEGSRSNLGWLCLLLLPIPLIVWVKRKEVQKTCRKHRKENQGSHESPTLNPETVAINLSDVDLSKYITTIAGVMTLSQVKGFVRKNGVNEAKIDEIKNDNVQDTAEQKVQLLRNWHQLHGKKEAYDTLIKDLKKANLCTLAEKIQTIILKDITSDSENSNFRNEIQSLV | 23.4 |

---

system: MCF7; experiment: percentage of EdU-negative (G0-arrested) nuclei per well, 72 h; higher = more G0 arrest; settings: protein concentration 0.0225 µM; reference: sequence is the full UniProt precursor, the tested protein was the secreted form or ectodomain
This listing pairs sequences with measured percentage of EdU-negative.

| ITEM SEQUENCE | percentage of EdU-negative / % |
| --- | --- |
| MAAWSPAAAAPLLRGIRGLPLHHRMFATQTEGELRVTQILKEKFPRATAIKVTDISGGCGAMYEIKIESEEFKEKRTVQQHQMVNQALKEEIKEMHGLRIFTSVPKR [Q53S33] | 26.7 |
| MRWCLLLIWAQGLRQAPLASGMMTGTIETTGNISAEKGGSIILQCHLSSTTAQVTQVNWEQQDQLLAICNADLGWHISPSFKDRVAPGPGLGLTLQSLTVNDTGEYFCIYHTYPDGTYTGRIFLEVLESSVAEHGARFQIPLLGAMAATLVVICTAVIVVVALTRKKKALRIHSVEGDLRRKSAGQEEWSPSAPSPPGSCVQAEAAPAGLCGEQRGEDCAELHDYFNVLSYRSLGNCSFFTETG [Q495A1] | 23.6 |
| MQCRLPRGLAGALLTLLCMGLLCLRYHLNLSPQRVQGTPELSQPNPGPPKLQLHDVFIAVKTTRAFHRLRLELLLDTWVSRTREQTFVFTDSPDKGLQERLGSHLVVTNCSAEHSHPALSCKMAAEFDTFLASGLRWFCHVDDDNYVNPRALLQLLRAFPLARDVYVGRPSLNRPIHASEPQPHNRTRLVQFWFATGGAGFCINRKLALKMAPWASGSRFMDTSALIRLPDDCTMGYIIECKLGGRLQPSPLFHSHLETLQLLRTAQLPEQVTLSYGVFEGKLNVIKLQGPFSPEEDPSRFRSLHCLLYPDTPWCPQLGAR | 25.3 |
| MRTIAILAAILLVALQAQAESLQERADEATTQKQSGEDNQDLAISFAGNGLSALRTSGSQARATCYCRTGRCATRESLSGVCEISGRLYRLCCR | 27.1 |
| MWTLGRRAVAGLLASPSPAQAQTLTRVPRPAELAPLCGRRGLRTDIDATCTPRRASSNQRGLNQIWNVKKQSVYLMNLRKSGTLGHPGSLDETTYERLAEETLDSLAEFFEDLADKPYTFEDYDVSFGSGVLTVKLGGDLGTYVINKQTPNKQIWLSSPSSGPKRYDWTGKNWVYSHDGVSLHELLAAELTKALKTKLDLSSLAYSGKDA | 25.6 |
| MDLSLLWVLLPLVTMAWGQYGDYGYPYQQYHDYSDDGWVNLNRQGFSYQCPQGQVIVAVRSIFSKKEGSDRQWNYACMPTPQSLGEPTECWWEEINRAGMEWYQTCSNNGLVAGFQSRYFESVLDREWQFYCCRYSKRCPYSCWLTTEYPGHYGEEMDMISYNYDYYIRGATTTFSAVERDRQWKFIMCRMTEYDCEFANV | 25.1 |
| MAQYLSTLLLLLATLAVALAWSPKEEDRIIPGGIYNADLNDEWVQRALHFAISEYNKATKDDYYRRPLRVLRARQQTVGGVNYFFDVEVGRTICTKSQPNLDTCAFHEQPELQKKQLCSFEIYEVPWENRRSLVKSRCQES | 25.5 |
